Cited source for all entries: ChEMBL document CHEMBL1156320

Biological target: C-C chemokine receptor type 5 (Homo sapiens, UniProt P51681)
Sequence (P51681 whole entry, looked up): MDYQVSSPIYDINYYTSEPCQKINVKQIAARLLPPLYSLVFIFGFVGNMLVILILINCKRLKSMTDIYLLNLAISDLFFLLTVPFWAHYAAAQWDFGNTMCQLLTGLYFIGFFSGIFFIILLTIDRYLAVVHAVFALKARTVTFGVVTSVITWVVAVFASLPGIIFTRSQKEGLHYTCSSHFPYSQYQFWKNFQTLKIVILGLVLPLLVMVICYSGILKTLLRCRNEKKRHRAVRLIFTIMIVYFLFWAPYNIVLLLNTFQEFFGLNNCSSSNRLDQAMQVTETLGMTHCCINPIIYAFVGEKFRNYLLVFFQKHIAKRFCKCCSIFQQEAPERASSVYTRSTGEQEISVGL
Experiment: Antagonist activity at CCR5 receptor expressed in CHO cells assessed as inhibition of RANTES-induced […]GTPgammaS binding at 300 nM
Format: functional, cell-based
Property: inhibition; scope: individual compounds
Unit % implied. Number only.

[
  {
    "Compound": "Cc1nc2cccnc2n1[C@H]1C[C@H]2CC[C@@H](C1)N2CC[C@H](C(=O)NCc1ccc(F)cc1)c1ccccc1",
    "Target desc": "C-C chemokine receptor type 5 (Homo sapiens, UniProt P51681)",
    "Endpoint unit": "%",
    "inhibition": 30
  },
  {
    "Compound": "Cc1nc2cccnc2n1[C@H]1C[C@H]2CC[C@@H](C1)N2CC[C@H](C(=O)N1C(=O)OC[C@H]1Cc1ccccc1)c1ccccc1 (stereo in doubt; 1b)",
    "Target desc": "C-C chemokine receptor type 5 (Homo sapiens, UniProt P51681)",
    "Endpoint unit": "%",
    "inhibition": 10
  },
  {
    "Compound": "O=C(NCc1ccc(F)cc1)[C@@H](CCN1[C@@H]2CC[C@H]1C[C@H](n1nnc3cccnc31)C2)c1ccccc1",
    "Target desc": "C-C chemokine receptor type 5 (Homo sapiens, UniProt P51681)",
    "Endpoint unit": "%",
    "inhibition": 1
  }
]

Incoming: Please look up its inhibition: `COC(=O)[C@@H](CCN1[C@@H]2CC[C@H]1C[C@@H](n1c(C)nc3cccnc31)C2)c1ccccc1`
Outgoing: 22

Incoming: Please look up its inhibition: `Cc1nc2cccnc2n1[C@@H]1C[C@H]2CC[C@@H](C1)N2CC[C@H](COCc1ccc(F)cc1)c1ccccc1`
Outgoing: 42

Incoming: Please look up its inhibition: Cc1nc2cccnc2n1[C@H]1C[C@H]2CC[C@@H](C1)N2CC[C@H](C(=O)N1C(=O)OC[C@H]1Cc1ccccc1)c1ccccc1 (stereo in doubt; 1a)
Outgoing: 30

Incoming: Please look up its inhibition: `Cc1nc2cccnc2n1[C@@H]1C[C@H]2CC[C@@H](C1)N2CC[C@H](C(=O)OCc1ccc(F)cc1)c1ccccc1`
Outgoing: 19
